System: Plasmodium falciparum
test.details: Screen against P. falciparum Asexual Blood Stage (ABS), at 5uM
Assay type: functional, Dd2
test.conditions: tested at 5 uM
In all, about 65,000 compounds went through this assay and about 2,100 (3.2%) showed an effect of 50% or more. The median lay at about -52%. The list comes from a sample in which strong results are over-represented; it also holds close analogues and randomly drawn compounds.
property: INHIBITION (%)
Numeric answer only, unit % assumed.

- CNC(=O)c1nc(CN2CCOC(CCCC(C)C)C2)no1 (centres undefined): -32
- Cc1ccc(N2CCC3(CC2)CCN(C2CCOCC2)CC3)nn1: -77.4

Recorded INHIBITION for COc1ccc(F)c(CN2CCCC3(CCN(C(=O)CSC)C3)C2)c1 (centres undefined) , please?
-63.5

Using the record for Cc1cc(F)ccc1CN1CCCC(O)(CN2CCCC2)C1 (centres undefined) , report its INHIBITION.
66.7

Consider the compound shown here: c1csc(C(CNCc2cccc3c2OCO3)N2CCOCC2)c1 (centres undefined) What is its recorded INHIBITION?
40.2

###

Tested on: Plasmodium falciparum
test.details: Screen against P. falciparum Asexual Blood Stage (ABS), at 5uM
Assay type: functional, Dd2
test.conditions: tested at 5 uM
Screen size: about 65,000 compounds; about 2,100 (3.2%) showed an effect of 50% or more. The median lay at about -52%. What follows is part of a selection rich in strong results, with near analogues and random picks from the rest.
The label depends only on INHIBITION: 1 (yes) if it is at least 20%, 0 (no) if it is smaller.

Use these answered entries as a reference point.
- c1ccc(-c2nc(CN3CCCC3Cn3cncn3)co2)cc1 (configuration not stated): 0 (no)
- CN1CCCC[C@@H]2[C@H]1[C@@H](c1ccccc1)CCN2C(=O)c1ccccc1: 0 (no)
- N#CCCN(CCC#N)Cc1ccc(Br)c2cccnc12: 0 (no)

Determine whether this compound has INHIBITION no lower than 20%: CN1C(=O)CN(C(=O)c2ccc(=O)n(C)c2)c2ccccc21
0 (no)

Could you tell me if the measured INHIBITION of Cc1cc(CN(C)C(=O)Nc2ccccc2C)no1 reaches 20% or more?
0 (no)

Check the entry CCN(CCO)Cc1ccc(Br)c2cccnc12 : does INHIBITION equal or exceed 20%?
1 (yes)

Could you tell me if the measured INHIBITION of CCn1c(CN2CCN(CCOC)CC2)nc2c(F)cccc21 reaches 20% or more?
1 (yes)

Entry Cc1ccc(OCc2occc2C(=O)O)cc1 : is its INHIBITION no less than 20%?
0 (no)

API: above_or_equal(metric=INHIBITION, cutoff=20%) for item CCOCC1CN(C(=O)c2cccs2)Cc2cnn(CC3CC3)c21 (configuration not stated)
0 (no)

###

Measured INHIBITION, listed per entry.
Tested on: Plasmodium falciparum
test.details: Screen against P. falciparum Asexual Blood Stage (ABS), at 5uM
Type: functional, Dd2
test.conditions: tested at 5 uM
About 2,100 (3.2%) of roughly 65,000 compounds showed an effect of 50% or more. The median lay at about -52%. The list comes from a sample in which strong results are over-represented; it also holds close analogues and randomly drawn compounds.
// note: answer is a bare numeric in %

Below, each entry is followed by its recorded INHIBITION result.
* O=C(NCc1ccccc1Cl)c1[nH]nc2c1CS(=O)(=O)CC2 | -148
* c1cc(CNCC2CNc3ccnn3C2)cc(OC2CCCC2)n1 (configuration not stated) | -58.6
* NC(=O)c1ccn(COc2ccccc2Cl)n1 | -63.1
* CCc1ccc(S(=O)(=O)N2CCN(CCn3ccnc3)CC2)cc1 | -45.4
* FC(F)(F)Cn1cc(NCc2cscn2)cn1 | -19.1
* Cc1ccc(OC2(C(=O)NC(C)Cc3ccncc3)CCNCC2)cc1 (configuration not stated) | -39.1
* CN1CCS(=O)(=O)[C@@H]2CCN(C(=O)c3ccccc3)CC[C@@H]21 | -102
* COCCN1CCN(Cc2c(C)noc2C)Cc2ccc(C)nc21 | -54
* Cn1c(CN2CCCCCC2)cc(=O)c(O)c1CN1CCCC1 | 60.2
* O=C(CCCNC(=O)c1cnccn1)Nc1ncc[nH]1 | -63.2

Bench note: what INHIBITION did Cc1ccc(CC(=O)N2CCOCC2c2c(C)n[nH]c2C)cc1 (configuration not stated) show?
-37.5

Item under review: CCC1CN(C(=O)NCc2cccnc2-n2cccn2)CCO1 (configuration not stated) . Reported INHIBITION?
-88.4
